- System Tested: human LAP-TGFβ1 expressed on P3U1 cells (human, UniProt P01137 30-390)
- Sequence (P01137 30-390): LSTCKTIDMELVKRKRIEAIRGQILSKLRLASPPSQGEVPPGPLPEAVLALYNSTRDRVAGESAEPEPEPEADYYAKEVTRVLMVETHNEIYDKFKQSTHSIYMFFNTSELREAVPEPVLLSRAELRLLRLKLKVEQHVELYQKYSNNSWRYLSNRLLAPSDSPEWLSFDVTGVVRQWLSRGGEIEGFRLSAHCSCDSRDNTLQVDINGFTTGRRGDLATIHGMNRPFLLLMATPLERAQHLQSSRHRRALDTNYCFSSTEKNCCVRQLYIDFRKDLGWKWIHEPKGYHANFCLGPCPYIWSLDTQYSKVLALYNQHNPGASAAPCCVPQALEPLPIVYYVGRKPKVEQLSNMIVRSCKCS
- Assay Name: cell-based or functional assay

Binder	Average EC50 / µg/mL
12BLM (antibody, human IgG1, kappa, L234A L235A, V domains shown, IgG1 L234A L235A D265S/kappa; also called 75BLH; 48BMD) VH: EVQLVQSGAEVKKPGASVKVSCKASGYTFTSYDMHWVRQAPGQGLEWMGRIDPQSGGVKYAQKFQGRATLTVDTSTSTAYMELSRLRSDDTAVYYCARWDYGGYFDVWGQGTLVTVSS VL: DIQMTQSPSSLSASVGDRVTITCRASQDIYNYLNWYQQKPGKAVKLLIYYTSVLETGVPSRFSGSGSGTDYTLTISSLQPEDFATYFCQQGDELPWTFGQGTKLEIKR	0.063
14BLM (antibody, human IgG1, kappa, L234A L235A, V domains shown) VH: EVQLVQSGAEVKKPGASVKVSCKASGYTFTSYDTHWVRQAPGQGLEWMGRIDPQSGGIKYAQKFQGRATLTVDTSTSTAYMELSRLRSDDTAVYYCARWDYGGYFDVWGQGTLVTVSS VL: DIQMTQSPSSLSASVGDRVTITCRASQDIYNYLNWYQQKPGKAVKLLIYYTSYLETGVPSRFSGSGSGTDYTLTISSLQPEDFATYFCQQGDTLPWTFGQGTKLEIKR	0.158
07BLM (antibody, human IgG1, kappa, L234A L235A, V domains shown, IgG1 L234A L235A D265S/kappa; also called 70BLH; 43BMD) VH: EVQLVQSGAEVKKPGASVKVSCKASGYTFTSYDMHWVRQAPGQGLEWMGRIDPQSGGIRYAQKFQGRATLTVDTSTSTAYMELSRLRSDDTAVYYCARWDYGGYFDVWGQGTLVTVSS VL: DIQMTQSPSSLSASVGDRVTITCRASQDIYSYLNWYQQKPGKAVKLLIYYTSNLETGVPSRFSGSGSGTDYTLTISSLQPEDFATYFCQQGDTLPWTFGQGTKLEIKR	0.076
